Data provenance is ChEMBL document CHEMBL4513216.

Tested on: Plasmodium berghei
RUN DESCRIPTION: Screen against P. berghei liver stage (PbLuc), transformed with Luciferase, at 10uM
Format: functional, HepG2
MEASUREMENT PARAMETERS: tested at 10 uM
The campaign covered roughly 69,000 compounds. About 8,600 (12%) showed an effect of 50% or more. Only a selection was taken, and strong results are over-represented in it overall.
REPORTED ENDPOINT: INHIBITION
Dear colleague, please send the value followed by its unit.

{"columns": ["MOLECULE", "INHIBITION"],
 "data": [
  ["CCNC(=O)CN1CCc2c(Br)ccc(F)c2C1", "-18.3%"]
]}

get_value(item= COCc1noc(CC2CN(c3ncnc4sc(C)c(C)c34)CCO2)n1 (centres undefined) , readout=INHIBITION) returns -12.5%

The reported INHIBITION of the molecule c1ccc2nc(N3CCOC(Cn4cncn4)C3)cnc2c1 (centres undefined) was -44.3%

Cc1nc(CN2CCCC(c3cnccn3)C2)cs1 (centres undefined) has a reported INHIBITION of 17.8%

Measured INHIBITION, CN1CCC(NC(=O)Nc2cnn(-c3ccccc3Cl)c2)CC1 : -10.1%

Reported INHIBITION for O=C(c1cc2cc(F)ccc2[nH]1)N1CCC(Nc2cccnn2)CC1 was 22.3%

----------
Test system: Plasmodium berghei
RUN DESCRIPTION: Screen against P. berghei liver stage (PbLuc), transformed with Luciferase, at 10uM
Assay type: functional, HepG2
MEASUREMENT PARAMETERS: tested at 10 uM
Among all 69,000 compounds or so, about 8,600 (12%) showed an effect of 50% or more. Many of the other results were omitted from the sample, so strong results are more common in it than they were.
hey, just use T if measured INHIBITION is less than 30%, otherwise F

{"columns": ["COMPOUND", "DISCRETE LABEL"],
 "data": [
  ["CCc1ccc(CN2CCc3ncnc(N4CCOCC4)c3CC2)o1", "T"],
  ["Cc1cc(N2CCC(n3cc(CN4CCC[C@@H]4CO)nn3)CC2)ccn1", "F"]
]}

Is it true that INHIBITION reported for COc1ccc(C(=O)NC(CC(=O)O)c2cccs2)c(OC)c1 (centres undefined) is less than 30%?
T

In the record for COc1ccccc1CC(=O)NC(CC(=O)O)c1ccc(F)cc1 (centres undefined) , is INHIBITION less than 30%?
F

----------
Tested on: Plasmodium berghei
RUN DESCRIPTION: Screen against P. berghei liver stage (PbLuc), transformed with Luciferase, at 10uM
Assay type: functional, HepG2
MEASUREMENT PARAMETERS: tested at 10 uM
The whole screen tested about 69,000 compounds, of which about 8,600 (12%) showed an effect of 50% or more. Many of the other results were omitted from the sample, so strong results are more common in it than they were.
Each entry below carries its reported INHIBITION.
Please give a number only; it is taken to be in %.

{"columns": ["MOLECULE", "MEASURED ON", "UNIT ABBREV", "VALUE"],
 "data": [
  ["COc1cc(C(C)NCc2scnc2C)ccc1SC(F)F (stereo unspecified)", "Plasmodium berghei", "%", 75.6]
]}

Next molecule, please.
Record summary for COc1ccc(C(C)NCc2c[nH]nc2C)cc1OC (stereo unspecified) : reported INHIBITION = -43

----------
Recorded INHIBITION values for a group of molecules are listed next.
System: Plasmodium berghei
RUN DESCRIPTION: Screen against P. berghei liver stage (PbLuc), transformed with Luciferase, at 10uM
Format: functional, HepG2
MEASUREMENT PARAMETERS: tested at 10 uM
The campaign covered roughly 69,000 compounds. About 8,600 (12%) showed an effect of 50% or more. Shown is part of a subset that was picked to be rich in strong results.
Use % as the unit, but write only the number.

The examples below pair each entry with its known result.
{"columns": ["MOLECULE", "INHIBITION / %"],
 "data": [
  ["COc1ccc(CN2CCO[C@@H]3C[C@@H](C(=O)NC(C)C)C[C@H]32)cc1", 26.5],
  ["Cc1ccc(O)c(CNC2CCCN(Cc3noc(C4CC4)n3)C2)n1 (stereo unspecified)", 15.3],
  ["Cc1cc(NCC2CCS(=O)(=O)C2)n2nc(C)cc2n1 (stereo unspecified)", 47],
  ["c1cnc(N2CCOCC3(CCCN(CC4CC4)C3)C2)cn1 (stereo unspecified)", 26.8],
  ["CNc1nc2c(c(C(=O)N3CCCC3)n1)CN(C(=O)C1CCCC1)CC2", 43.4],
  ["CN(C)C(=O)c1nnn(-c2ccc(Br)cc2)n1", 28.4],
  ["CC(C)CNC(=O)C1(Cc2ccccc2-c2cccs2)CCNC1 (stereo unspecified)", 14.7],
  ["O=C(NC1(c2cccc(F)c2)CCOCC1)c1ccccn1", 26.8]
]}

# INHIBITION (molecule: O=C(Cc1ccccn1)N1CCC(c2noc(-c3ccncc3)n2)CC1 ) is -8.12

INHIBITION recorded for this molecule, CNc1[nH]nc(N)c1NC(=O)c1ccccc1 , is 17.6

The reported value for Cc1cccc(CN2C[C@@H]3COC[C@]3(CNC(=O)c3ccsc3)C2)n1 in terms of INHIBITION is 39.8

----------
Test system: Plasmodium berghei
RUN DESCRIPTION: Screen against P. berghei liver stage (PbLuc), transformed with Luciferase, at 10uM
Type: functional, HepG2
MEASUREMENT PARAMETERS: tested at 10 uM
About 8,600 (12%) of roughly 69,000 compounds showed an effect of 50% or more. Only a selection was taken, and strong results are over-represented in it overall.
Cut-off 50% on INHIBITION, inclusive. At or above means t; below means f.

Solved cases below.
{"columns": ["COMPOUND", "MEASURED ON", "DISCRETE LABEL"],
 "data": [
  ["N#Cc1cccc(CN2Cc3nccn3CC(COCC3CC3)C2)c1 (configuration not stated)", "Plasmodium berghei", "f"],
  ["c1ccc(CN2Cc3nccn3CC(Cn3cccn3)C2)nc1 (configuration not stated)", "Plasmodium berghei", "t"],
  ["CN(C)c1ncnc2c1CCN(CC1CCOCC1)CC2", "Plasmodium berghei", "t"],
  ["CN(C)C(=O)COCC1CN(Cc2ccsc2)Cc2nccn2C1 (configuration not stated)", "Plasmodium berghei", "f"],
  ["COc1ncccc1CN1Cc2nccn2CC(Cn2cccn2)C1 (configuration not stated)", "Plasmodium berghei", "f"],
  ["Cc1nc(-c2ccc(CO)cc2)cc(C2CCNCC2)n1", "Plasmodium berghei", "f"],
  ["CCOCC1CN(Cc2cccc(C#N)c2)Cc2nccn2C1 (configuration not stated)", "Plasmodium berghei", "f"],
  ["Cc1cc(C)n(CCC(=O)N2CCC(c3nc(C)no3)CC2)n1", "Plasmodium berghei", "f"],
  ["N#Cc1cccc(CN2Cc3nccn3CC(CN3CCCC3)C2)c1 (configuration not stated)", "Plasmodium berghei", "f"],
  ["COc1ncccc1CN1Cc2nccn2CC(CN2CCCC2)C1 (configuration not stated)", "Plasmodium berghei", "t"]
]}

Threshold query (INHIBITION >= 50%) on c1ccc(COCC2CN(Cc3ccsc3)Cc3nccn3C2)nc1 (configuration not stated)
t

Please indicate if the recorded INHIBITION for O=C(Cc1ccccn1)NCC1OCCc2cn(CC3CC3)nc21 (configuration not stated) meets or exceeds 50%.
f

----------
Tested on: Plasmodium berghei
RUN DESCRIPTION: Screen against P. berghei liver stage (PbLuc), transformed with Luciferase, at 10uM
Format: functional, HepG2
MEASUREMENT PARAMETERS: tested at 10 uM
The campaign covered roughly 69,000 compounds. About 8,600 (12%) showed an effect of 50% or more. The sample holds strong results, similar compounds and a random draw of the others, so the mix is not that of the screen.
REPORTED ENDPOINT: INHIBITION (%)
The reply should contain only the number, in %.

Here is how some compounds turned out for INHIBITION.
{"columns": ["COMPOUND", "INHIBITION, %"],
 "data": [
  ["CN1CCC(N(Cc2ccco2)S(=O)(=O)c2ccc(Br)cc2Cl)CC1", 61.2],
  ["NC(=O)c1nc2c(s1)CCN(C(=O)Nc1ccccc1)CC2", 40.5],
  ["COc1cccc2c1N(CC(=O)Nc1ccc(Cl)cn1)CCC2", 33.1],
  ["COc1ncccc1NC(=O)N(Cc1ccccn1)C1CC1", -47.6],
  ["COc1ncccc1NC(=O)N(Cc1ccc(C(N)=O)cc1)C1CC1", -35.7]
]}

Okay, now this compound:
Note to self: INHIBITION recorded for O=C(NCCNc1ncccn1)C1CC(=O)N(Cc2ccccc2)C1 (centres undefined) was -24.2
